Test system: L1210 leukemia ip in BDF1 mice, survival T/C
protocol details: NCI In Vivo Anticancer Drug Screen. Data for tumor model L1210 Leukemia (intraperitoneal) in B6D2F1 (BDF1) mice
protocol conditions: endpoint: mean survival time; dose: 200.0 mg/kg/injection; schedule: Q01DX009 (ip); vehicle: saline with Tween-80; higher = longer survival
Inconclusive results and toxic doses are left out.
measured endpoint: T/C

Here are 3 compounds together with their reported answers.
[
  {
    "compound": "CCCCC(CC)CCC(O)CC (centres undefined)",
    "T/C": "101 % of control"
  },
  {
    "compound": "O=C(Nc1ccc(Cl)cc1Cl)c1ccc2c(c1)C(=O)OC2=O",
    "T/C": "92 % of control"
  },
  {
    "compound": "CCOc1ccc(C(=O)Nc2c(C)cc(C)cc2C)cc1",
    "T/C": "96 % of control"
  }
]

Next compound, T/C to be filled in.
query: Hello, please tell me recorded T/C for this one: Nc1ccc2c(=O)[nH][nH]c(=O)c2c1
result: 98 % of control

====

Tested on: L1210 leukemia ip in BDF1 mice, survival T/C
protocol details: NCI In Vivo Anticancer Drug Screen. Data for tumor model L1210 Leukemia (intraperitoneal) in B6D2F1 (BDF1) mice
protocol conditions: endpoint: mean survival time; dose: 100.0 mg/kg/injection; schedule: Q04DX002 (ip); vehicle: Klucel (hydroxypropylcellulose) (HPC); higher = longer survival
Toxic doses and inconclusive results are not listed.
Consider the following molecules and their measured T/C readings.

Here are 5 molecules together with their reported answers.
[
  {
    "molecule": "N=C(N)SCc1ccc(Cl)cc1N",
    "T/C": "103 % of control"
  },
  {
    "molecule": "Clc1cc(Cc2ccc(N=C/C=C/c3ccccc3)c(Cl)c2)ccc1N=C/C=C\\c1ccccc1",
    "T/C": "100 % of control"
  },
  {
    "molecule": "COC(=O)C1C2CCC(C2)C1C(=O)OC (centres undefined)",
    "T/C": "111 % of control"
  },
  {
    "molecule": "COc1cc(C(C)=O)ccc1O",
    "T/C": "99 % of control"
  },
  {
    "molecule": "Cc1nc(NN)ccc1[N+](=O)[O-]",
    "T/C": "96 % of control"
  }
]

query: Hello, please tell me recorded T/C for this one: Cc1cccc(Cl)c1NC(=O)c1c(Cl)c(Cl)c(Cl)c(Cl)c1C(=O)O
result: 110 % of control

query: Hello, please tell me recorded T/C for this one: CN(C)C1CCC(/C=C(\C#N)C2CCC([N+](=O)[O-])CC2)CC1 (centres undefined)
result: 95 % of control

query: Hello, please tell me recorded T/C for this one: Cc1c(C(=O)NN)no[n+]1[O-]
result: 93 % of control

query: Hello, please tell me recorded T/C for this one: CCCCCC(C)NC(=O)NCCCl (centres undefined)
result: 89 % of control

====

Consider the following molecules and their measured T/C readings.
Tested on: L1210 leukemia ip in BDF1 mice, survival T/C
protocol details: NCI In Vivo Anticancer Drug Screen. Data for tumor model L1210 Leukemia (intraperitoneal) in B6D2F1 (BDF1) mice
protocol conditions: endpoint: mean survival time; dose: 400.0 mg/kg/injection; schedule: Q01DX009 (ip); vehicle: Klucel (hydroxypropylcellulose) (HPC); higher = longer survival
Inconclusive results and toxic doses are left out.

Here are 4 molecules together with their reported answers.
[
  {
    "molecule": "O=C(NCCCl)NCC1CCCCO1 (configuration not stated)",
    "measured endpoint": "T/C",
    "result": "101 % of control"
  },
  {
    "molecule": "CC(Cl)CN(CC(C)Cl)C(=O)OCC(NC(=O)OCc1ccccc1)C(=O)OCc1ccccc1 (configuration not stated)",
    "measured endpoint": "T/C",
    "result": "91 % of control"
  },
  {
    "molecule": "Cc1cc(C)c(S(=O)(=O)Nc2ccccc2F)c(C)c1",
    "measured endpoint": "T/C",
    "result": "93 % of control"
  },
  {
    "molecule": "COc1ccc(OC(=O)Nc2ccccc2Cl)cc1",
    "measured endpoint": "T/C",
    "result": "103 % of control"
  }
]

query: Hello, please tell me recorded T/C for this one: CC1=CC=C(C(=O)O)C1
result: 92 % of control

query: Hello, please tell me recorded T/C for this one: O=[N+]([O-])c1cccc(N=Cc2ccccc2)c1
result: 88 % of control

query: Hello, please tell me recorded T/C for this one: Cc1oc2c(O)ccc(N=Nc3cccc([N+](=O)[O-])c3)c2c1C
result: 90 % of control

====

System: L1210 leukemia ip in BDF1 mice, survival T/C
protocol details: NCI In Vivo Anticancer Drug Screen. Data for tumor model L1210 Leukemia (intraperitoneal) in B6D2F1 (BDF1) mice
protocol conditions: endpoint: mean survival time; dose: 75.0 mg/kg/injection; schedule: Q01DX001 (ip); vehicle: saline; higher = longer survival
Toxic doses and inconclusive results are not listed.
measured endpoint: T/C

Here are 3 molecules together with their reported answers.
[
  {
    "molecule": "CC1(C)COc2cc([N+](=O)[O-])cc(N)c2N1",
    "experimental system": "L1210 leukemia ip in BDF1 mice, survival T/C",
    "T/C": "107 % of control"
  },
  {
    "molecule": "O=C(Cc1ccc(CC(=O)NO)cc1)NO",
    "experimental system": "L1210 leukemia ip in BDF1 mice, survival T/C",
    "T/C": "100 % of control"
  },
  {
    "molecule": "CCOC(=O)N(CCC(=O)OC(C)(C)C)CC(=O)OC(C)(C)C",
    "experimental system": "L1210 leukemia ip in BDF1 mice, survival T/C",
    "T/C": "92 % of control"
  }
]

query: Hello, please tell me recorded T/C for this one: CCCC1(CC(C)CC)C(=O)NC(=O)NC1=O (centres undefined)
result: 100 % of control

====

Consider the following compounds and their measured T/C readings.
System: L1210 leukemia ip in BDF1 mice, survival T/C
protocol details: NCI In Vivo Anticancer Drug Screen. Data for tumor model L1210 Leukemia (intraperitoneal) in B6D2F1 (BDF1) mice
protocol conditions: endpoint: mean survival time; dose: 200.0 mg/kg/injection; schedule: Q04DX003 (ip); vehicle: saline; higher = longer survival
Inconclusive results and toxic doses are left out.

Here are 10 compounds together with their reported answers.
[
  {
    "compound": "Clc1ccc(Cl)c(-c2csc(Nc3cccnc3)n2)c1",
    "T/C": "94 % of control"
  },
  {
    "compound": "CN(CCC#N)CCC#N",
    "T/C": "94 % of control"
  },
  {
    "compound": "O=C(c1ccccc1Br)N1CCN=C(c2ccccc2)C=C1c1ccccc1",
    "T/C": "94 % of control"
  },
  {
    "compound": "Nc1nc2c(ncn2CCC(N)C(=O)O)c(=O)[nH]1 (centres undefined)",
    "T/C": "98 % of control"
  },
  {
    "compound": "CCCCCCCC(=O)/C=C/c1ccc(C)cc1",
    "T/C": "103 % of control"
  },
  {
    "compound": "C1CC2OC2CC1C1CO1 (centres undefined)",
    "T/C": "109 % of control"
  },
  {
    "compound": "CC1(C)CCc2cc3c(O)c(-c4ccccc4)c(=O)oc3cc2O1",
    "T/C": "91 % of control"
  },
  {
    "compound": "COc1ccc(C(=O)C(C)C(O)C(=O)O)c(O)c1C (centres undefined)",
    "T/C": "94 % of control"
  },
  {
    "compound": "CC(=O)Nc1c(Cl)c(Cl)c2c(c1Cl)Cc1cc(Cl)ccc1-2",
    "T/C": "91 % of control"
  },
  {
    "compound": "CCOC(=O)NC(=O)Nc1ncn[nH]1",
    "T/C": "94 % of control"
  }
]

query: Hello, please tell me recorded T/C for this one: CC(=O)/C(=C/c1ccccc1)N=P(c1ccccc1)(c1ccccc1)c1ccccc1
result: 90 % of control

query: Hello, please tell me recorded T/C for this one: O=C1/C(=C\c2ccccc2)N2CCC1CC2
result: 108 % of control

query: Hello, please tell me recorded T/C for this one: CC(=O)OCC1(C[N+](C)(C)C)CC1
result: 100 % of control

query: Hello, please tell me recorded T/C for this one: CC1(C)CC(=O)c2ccccc21
result: 96 % of control

====

Consider the following molecules and their measured T/C readings.
System: L1210 leukemia ip in BDF1 mice, survival T/C
protocol details: NCI In Vivo Anticancer Drug Screen. Data for tumor model L1210 Leukemia (intraperitoneal) in B6D2F1 (BDF1) mice
protocol conditions: endpoint: mean survival time; dose: 200.0 mg/kg/injection; schedule: Q04DX003 (ip); vehicle: saline with Tween-80; higher = longer survival
Inconclusive results and toxic doses are left out.

Here are 8 molecules together with their reported answers.
[
  {
    "molecule": "Cc1ncc(C(O)(c2ccccc2)C(C)C)n1Cc1ccccc1 (centres undefined)",
    "result": "97 % of control"
  },
  {
    "molecule": "CC12CCC(O)CC1=CCC1C2CCC2(C)C(C(O)CC(O)(C(F)(F)F)C(F)(F)F)CCC12 (centres undefined)",
    "result": "93 % of control"
  },
  {
    "molecule": "Cc1ccc(NCc2nc(N)nc(Nc3ccc(C)cc3)n2)cc1",
    "result": "101 % of control"
  },
  {
    "molecule": "CC1(C)CC(N=Cc2ccccc2O)CC(C)(C)N1O.CC1(C)CC(N=Cc2ccccc2O)CC(C)(C)N1O.[Pd]",
    "result": "90 % of control"
  },
  {
    "molecule": "CN(C)C=C1C(=O)c2ccccc2C1=O",
    "result": "107 % of control"
  },
  {
    "molecule": "c1ccc(-c2n[nH]c(-c3ccccc3)c2-c2ccccc2)cc1",
    "result": "100 % of control"
  },
  {
    "molecule": "O=C(N=C(c1ccccc1)c1ccccc1)c1ccccc1",
    "result": "90 % of control"
  },
  {
    "molecule": "O=C(NO)Nc1ccccc1",
    "result": "96 % of control"
  }
]

Next molecule, T/C to be filled in.
query: Hello, please tell me recorded T/C for this one: CCCCCCCCCCCCC(=O)OC
result: 96 % of control
